Where do the numbers come from? From patent US20090298167A1.

- assay.target: human IL-21R expressed on cells (human, UniProt Q9HBE5 20-538)
- Sequence (Q9HBE5 20-538 limits assumed): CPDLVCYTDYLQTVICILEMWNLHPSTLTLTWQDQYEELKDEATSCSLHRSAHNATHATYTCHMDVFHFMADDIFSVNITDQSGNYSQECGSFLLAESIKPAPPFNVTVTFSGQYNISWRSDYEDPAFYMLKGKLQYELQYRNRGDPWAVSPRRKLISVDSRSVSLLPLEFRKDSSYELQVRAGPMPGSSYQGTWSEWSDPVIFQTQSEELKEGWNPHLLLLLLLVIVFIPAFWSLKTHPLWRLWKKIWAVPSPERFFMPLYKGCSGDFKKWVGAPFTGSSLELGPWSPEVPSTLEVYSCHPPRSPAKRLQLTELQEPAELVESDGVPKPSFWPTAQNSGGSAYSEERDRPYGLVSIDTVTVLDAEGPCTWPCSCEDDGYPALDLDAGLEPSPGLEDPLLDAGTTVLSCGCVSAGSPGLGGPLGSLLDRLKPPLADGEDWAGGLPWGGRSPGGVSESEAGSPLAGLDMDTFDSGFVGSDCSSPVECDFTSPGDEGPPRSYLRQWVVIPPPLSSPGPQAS
- experimental.details: cell-based or functional assay
Strictly below 0.2 nM in Neutralization of B cell proliferation IC50: MET. Otherwise: NOT MET.

stdin: Criterion: Neutralization of B cell proliferation IC50 strictly below 0.2 nM. Is it met by parental 18A5 antibody (antibody, V domains shown) VH: QVQLQESGPGLVKTSETLSLTCAVSGYSISSGYYWGWIRQPPGKGLEWIGSISHTGNTYYNPPLKSRVTISVDTSKNQFSLKLSSVTAADTAVYYCARGGGISRPEYWGKGTLVTVSS VL: SSELTQDPPVSVALGQTVTLTCQGDSLRTYYASWYQQKSGQAPILLLYGKHKRPSGIPDRFSGSTSGDTASLTITGAQAEDEADYYCNSRDSSGNPHVLFGGGTQLTVL ?
stdout: NOT MET

stdin: Please state whether Neutralization of B cell proliferation IC50 is below 0.2 nM for AbR (antibody, human IgG1, V domains shown, Purified form: human IgG1 double-mutant (L234A, G237A); Framework limits derived; also called VH3/VL18; VH3DM/VL18) VH: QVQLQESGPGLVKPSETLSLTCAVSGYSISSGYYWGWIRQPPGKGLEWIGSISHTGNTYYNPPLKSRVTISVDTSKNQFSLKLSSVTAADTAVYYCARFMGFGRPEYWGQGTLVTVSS VL: SSELTQDPAVSVALGQTVRITCQGDSLRTYYASWYQQKPGQAPVLVIYGKHKRPSGIPDRFSGSSSGNTASLTITGAQAEDEADYYCVTRSVKGNPHVLFGGGTQLTVL
stdout: NOT MET

stdin: Here's an entry: AbS (antibody, human IgG1, V domains shown, Human IgG1 triple-mutant (L234A, L235A, G237A); Framework limits derived; also called VHP/VL6; VHPTM/VL6) VH: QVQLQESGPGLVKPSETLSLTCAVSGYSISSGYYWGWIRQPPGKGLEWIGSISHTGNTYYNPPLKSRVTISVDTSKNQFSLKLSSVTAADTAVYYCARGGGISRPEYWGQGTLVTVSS VL: SSELTQDPAVSVALGQTVRITCQGDSLRTYYASWYQQKPGQAPVLVIYGKHKRPSGIPDRFSGSSSGNTASLTITGAQAEDEADYYCMSRSIWGNPHVLFGGGTQLTVL . Is its Neutralization of B cell proliferation IC50 below 0.2 nM?
stdout: NOT MET

stdin: Hello, I'm reviewing records and need to know if Neutralization of B cell proliferation IC50 of AbQ (antibody, human IgG1, V domains shown, Purified form: human IgG1 double-mutant (L234A, G237A); Framework limits derived; also called VH3/VL2; VH3DM/VL2) VH: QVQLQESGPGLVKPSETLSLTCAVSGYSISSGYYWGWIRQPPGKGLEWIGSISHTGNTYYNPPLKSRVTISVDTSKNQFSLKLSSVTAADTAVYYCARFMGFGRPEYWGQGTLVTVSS VL: SSELTQDPAVSVALGQTVRITCQGDSLRTYYASWYQQKPGQAPVLVIYGKHKRPSGIPDRFSGSSSGNTASLTITGAQAEDEADYYCVARSVVGNPHVLFGGGTQLTVL is below 0.2 nM. Could you check?
stdout: MET

stdin: Please determine if AbT (antibody, human IgG1, V domains shown, Human IgG1 triple-mutant (L234A, L235A, G237A); Framework limits derived; also called VHP/VL9; VHPTM/VL9) VH: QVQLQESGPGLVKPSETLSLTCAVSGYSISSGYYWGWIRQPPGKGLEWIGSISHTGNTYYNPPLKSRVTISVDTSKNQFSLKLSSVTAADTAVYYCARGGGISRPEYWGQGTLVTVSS VL: SSELTQDPAVSVALGQTVRITCQGDSLRTYYASWYQQKPGQAPVLVIYGKHKRPSGIPDRFSGSSSGNTASLTITGAQAEDEADYYCVARSNKGNPHVLFGGGTQLTVL is below 0.2 nM in terms of Neutralization of B cell proliferation IC50.
stdout: MET

stdin: Identify whether the binder AbU (antibody, human IgG1, V domains shown, Human IgG1 triple-mutant (L234A, L235A, G237A); Framework limits derived; also called VHP/VL25; VHPTM/VL25) VH: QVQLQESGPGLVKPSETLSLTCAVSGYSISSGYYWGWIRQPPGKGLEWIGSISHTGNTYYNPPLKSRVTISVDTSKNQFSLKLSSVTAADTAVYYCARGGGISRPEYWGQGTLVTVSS VL: SSELTQDPAVSVALGQTVRITCQGDSLRTYYASWYQQKPGQAPVLVIYGKHKRPSGIPDRFSGSSSGNTASLTITGAQAEDEADYYCTTRSNKGNPHVLFGGGTQLTVL records Neutralization of B cell proliferation IC50 below 0.2 nM.
stdout: MET
